Property: MIC; scope: individual compounds
Tested on: P. aeruginosa
Experiment: MIC by twofold serial dilution
Format: cell-based, Pseudomonas aeuroginosa (ATCC 10145)
Settings: Pseudomonas aeruginosa; Gram-negative; read-out: Minimum inhibitory concentration (MIC), P. aeruginosa
Answer format reminder: number followed by unit.

>>> result_value("O=C(O)c1cn(C2CC2)c2cc(N3CCNCC3)c(F)cc2c1=O [Ciprofloxacin, reference compound]")
"0.06 µM"
>>> result_value("Cc1nc(SCC(=O)c2cc3ccccc3oc2=O)sc1C(=O)/C=C/c1ccc(Cl)cc1 [Compound 11b]")
"0.045 µM"

[in] Dear colleague, I am looking for the recorded MIC of the following compound: Cc1nc(SCC(=O)c2cc3cc(Br)ccc3oc2=O)sc1C(=O)/C=C/c1ccc(Cl)cc1 [Compound 11e]
[out] 0.053 µM

[in] Try Cc1nc(SCC(=O)c2cc3ccccc3o2)sc1C(=O)/C=C/c1ccc(Cl)cc1 [Compound 12b] next.
[out] 0.064 µM

----------
Biological target: VEGFR-2 (Homo sapiens, UniProt P35968)
Sequence (P35968 20-1356): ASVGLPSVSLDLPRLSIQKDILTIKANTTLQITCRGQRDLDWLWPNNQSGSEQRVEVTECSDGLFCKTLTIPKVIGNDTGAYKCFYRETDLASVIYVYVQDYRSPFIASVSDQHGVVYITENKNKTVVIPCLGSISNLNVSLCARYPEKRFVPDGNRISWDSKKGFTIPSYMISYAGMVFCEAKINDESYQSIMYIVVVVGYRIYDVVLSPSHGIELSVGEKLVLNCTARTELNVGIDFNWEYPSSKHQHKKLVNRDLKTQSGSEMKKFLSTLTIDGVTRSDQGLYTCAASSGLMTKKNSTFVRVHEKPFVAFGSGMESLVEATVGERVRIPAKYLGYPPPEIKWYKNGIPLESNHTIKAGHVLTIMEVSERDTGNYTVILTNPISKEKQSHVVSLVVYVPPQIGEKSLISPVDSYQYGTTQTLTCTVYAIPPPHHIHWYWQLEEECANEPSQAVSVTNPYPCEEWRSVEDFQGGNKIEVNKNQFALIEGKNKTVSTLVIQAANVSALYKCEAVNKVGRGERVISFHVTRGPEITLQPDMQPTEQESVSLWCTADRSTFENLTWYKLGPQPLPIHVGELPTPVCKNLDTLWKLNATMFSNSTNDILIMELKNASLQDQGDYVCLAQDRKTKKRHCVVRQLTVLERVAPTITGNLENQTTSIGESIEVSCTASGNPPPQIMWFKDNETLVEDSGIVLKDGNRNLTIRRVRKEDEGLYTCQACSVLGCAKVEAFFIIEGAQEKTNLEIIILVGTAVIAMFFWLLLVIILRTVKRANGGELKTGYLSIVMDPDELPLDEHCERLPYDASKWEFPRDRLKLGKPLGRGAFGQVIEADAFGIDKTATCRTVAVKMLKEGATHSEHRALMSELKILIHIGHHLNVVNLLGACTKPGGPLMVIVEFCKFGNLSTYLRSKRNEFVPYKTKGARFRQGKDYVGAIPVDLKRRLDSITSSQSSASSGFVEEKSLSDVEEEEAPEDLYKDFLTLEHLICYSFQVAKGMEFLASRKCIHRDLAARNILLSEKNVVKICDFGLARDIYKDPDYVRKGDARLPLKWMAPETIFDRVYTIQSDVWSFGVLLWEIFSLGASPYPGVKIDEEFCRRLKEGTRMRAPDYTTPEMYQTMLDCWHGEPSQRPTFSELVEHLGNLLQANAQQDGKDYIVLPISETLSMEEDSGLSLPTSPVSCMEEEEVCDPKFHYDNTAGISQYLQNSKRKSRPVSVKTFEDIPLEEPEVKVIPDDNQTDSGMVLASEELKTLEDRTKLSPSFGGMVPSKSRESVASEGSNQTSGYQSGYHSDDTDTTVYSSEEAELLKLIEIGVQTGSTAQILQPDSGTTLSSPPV
Simple rule here: IC50 less than 4 µM is Condition met, otherwise Condition not met.

Known results for compounds:
>>> label_class("COc1ccc(/C=C/C(=O)c2sc(SCC(=O)c3cc4cc(Br)ccc4oc3=O)nc2C)cc1 [Compound 11f]")
"Condition met"
>>> label_class("Cc1nc(SCC(=O)c2cc3cc(Br)ccc3oc2=O)sc1C(=O)/C=C/c1ccccc1 [Compound 11d]")
"Condition met"
>>> label_class("Cc1nc(SCC(=O)c2cc3cc(Br)ccc3oc2=O)sc1C(=O)/C=C/c1ccc(Cl)cc1 [Compound 11e]")
"Condition not met"

Let us examine a further case.
[in] Just wondering, is IC50 of Cc1nc(SCC(=O)c2cc3ccccc3oc2=O)sc1C(=O)/C=C/c1ccccc1 [Compound 11a] below 4 µM?
[out] Condition not met

----------
Test: in vitro
Conditions: human, MCF-10A mammary gland epithelial cells (normal cell line)
Property Measured: viability at 96 h, 50 µM (%)
Express your answer in %, writing the number without its unit.

>>> result_value("Cc1nc(SCC(=O)c2cc3ccccc3oc2=O)sc1C(=O)/C=C/c1ccccc1 [Compound 11a]")
91
>>> result_value("Cc1nc(SCC(=O)c2cc3ccccc3oc2=O)sc1C(=O)/C=C/c1ccc(Cl)cc1 [Compound 11b]")
92
>>> result_value("COc1ccc(/C=C/C(=O)c2sc(SCC(=O)c3cc4cc(Br)ccc4oc3=O)nc2C)cc1 [Compound 11f]")
93

[in] What measured viability at 96 h, 50 µM goes with Cc1nc(SCC(=O)c2cc3ccccc3o2)sc1C(=O)/C=C/c1ccc(Cl)cc1 [Compound 12b] ?
[out] 90

[in] Please answer likewise for Cc1nc(SCC(=O)c2cc3cc(Br)ccc3o2)sc1C(=O)/C=C/c1ccccc1 [Compound 12d]
[out] 90

[in] Same question for Cc1nc(SCC(=O)c2cc3cc(Br)ccc3o2)sc1C(=O)/C=C/c1ccc(Cl)cc1 [Compound 12e] please.
[out] 94

[in] Another molecule to check: Cc1nc(SCC(=O)c2cc3cc(Br)ccc3oc2=O)sc1C(=O)/C=C/c1ccccc1 [Compound 11d]
[out] 95

[in] How about Cc1nc(SCC(=O)c2cc3cc(Br)ccc3oc2=O)sc1C(=O)/C=C/c1ccc(Cl)cc1 [Compound 11e] ?
[out] 91

[in] Try this molecule next: Cc1nc(SCC(=O)c2cc3ccccc3o2)sc1C(=O)/C=C/c1ccccc1 [Compound 12a]
[out] 93

[in] What do you get for COc1ccc(/C=C/C(=O)c2sc(SCC(=O)c3cc4ccccc4o3)nc2C)cc1 [Compound 12c] ?
[out] 91

[in] Same for COc1ccc(/C=C/C(=O)c2sc(SCC(=O)c3cc4cc(Br)ccc4o3)nc2C)cc1 [Compound 12f]
[out] 92
